meta.source: patent US20250339569A1

Biological target: Fc-fusion protein of human carbonic anhydrase IX (human, UniProt Q16790 38-414)
Assay: SPR, captured hCAIX-Fc; pKD category A: >8.0
Description: Stock solutions of test compounds were prepared by dissolving each compound in DMSO. DMSO stock solution were diluted 1:1000 in Running Buffer without DMSO. […] SPR binding analyses were performed in Single Cycle Kinetic (SCK) mode at 25° C. For each test compound, SPR raw data in the form of resonance units (RU) were plotted as sensorgrams using the Biacore™ T200 control software. […] The pKD value (negative decadic logarithm of dissociation constant) was calculated in the IDBS excel template.
Starred links: 1 amine or outer side, 2 acyl side, 3 side chain; linkers in the order of their positions; H or OH if unused. Positions of bridges follow the written chain, without caps; N, C: chain ends. Non-standard residues stand in square brackets, D forms with d. Primed or numbered codes have the meaning given here. *: point of attachment. Af3(HO-Succinyl)″ = 3-aminophenylalanine, ring amine acylated with succinic acid, O=C(CCC(=O)[*:3])Nc1cccc(C[C@H](N[*:1])C(=O)[*:2])c1; APAc″ = 2-(4-(amino)piperidin-1-yl)acetic acid, NC1CCN(CC(=O)*)CC1; DOTA = O=C(O)CN1CCN(CC(=O)O)CCN(CC(=O)*)CCN(CC(=O)O)CC1; mXylylene = c1cc(C[*:1])cc(C[*:2])c1; APAc = not defined here; Dap = NC[C@H](N)C(=O)O
Give measured pKD for each item. Keep answers brief.

Problem: Please give the measured pKD for this binder: {DOTA-APAc″}-VECE[dP]DWLTW[Dap]C-NH2 (lactam 2-11; linker 3-12 via mXylylene) [3BP-4175]
Result: > 8 pkd

Problem: Also check {DOTA-APAc}-VDCE[dP]D[Af3(HO-Succinyl)″]LTW[Dap]C-NH2 (lactam 2-11; linker 3-12 via mXylylene; reading uncertain) [3BP-4377]
Result: > 8 pkd
